Experiment: Inhibition of porcine kidney TNAP using para-nitrophenylphosphate as substrate preincubated for 10 mins at pH 7.8 followed by substrate addition
Set-up: species or system Sus scrofa
Please provide measured Ki for the entries that follow.
Give bare numbers, in µM.

For each listed entry, give its Ki.
1. C1=CN2CC(c3cc4ccccc4o3)N=C2S1 (configuration not stated)
2. c1ccc([C@H]2CN3CCSC3=N2)cc1

Output:
32
47
